Would you mind telling me the reported pIC50 of each entry?
- target_entity: T1, βTrCP (tag cleaved and complexed with Skp1) (UniProt Q9Y297 175-605; P63208 1-163)
- T1 construct: Protein of the fluorescence polarisation assay, 0.035 µM; also called Beta Transducin repeat-containing protein; βTrCP/Skp1
- method: FP competition, 10 nM fluorescein-IκB peptide on βTrCP/Skp1
Starred links: 1 amine or outer side, 2 acyl side, 3 side chain; linkers in the order of their positions; H or OH if unused. Suc = O=C(CCC(=O)[*:2])[*:1]
Answers are plain numbers, as −log10 of the molar value.

>  <binder>
Phth-EGFFE-NH2 [Phth-EGFFE-NH2]

>  <pIC50>
4.96

$$$$

Okay, next one:
What value of measured pIC50 is listed for Suc-EGFFE-NH2 (SMILES NC(=O)[C@H](CCC(=O)O)NC(=O)[C@H](Cc1ccccc1)NC(=O)[C@H](Cc1ccccc1)NC(=O)CNC(=O)[C@H](CCC(=O)O)NC(=O)CCC(=O)O, also called UBP002; succ-EGFFE) [Suc-EGFFE-NH2] ?
5.50

From: patent US20190106460A1
